assay: yeast display, Sf9 membrane polyspecificity reagent, FACS + sequencing; frameworks hold sequencing errors
Reported metric: polyreactivity (PSR sort gate)

See these solved cases before continuing.
Sequence: QVQLVESGGGLVQAGGSLRLSCAASGSTFTGNAMGWYRQAPGKERELVAAISRSGGSTFYADSVKGRFTISRDNAKNTVYLQINSLKPEDTAVYYCAAPVYLYGTVGRGDYWGQGTQVTVSS
polyreactivity (PSR sort gate): high polyreactivity
//
Sequence: QVQLVESGGGLVQAGGSLRLSCAASGRIFTKYAMGWYRQAPGKERELVAAISSRGGSTYYADSVKGRFTISRDNAKNTVYLQMNSLKPEDTAVYYCAAGYLPRYYYTPQFDGDYWGQGTQVTVSS
polyreactivity (PSR sort gate): high polyreactivity
//
Sequence: QVQLVESGGGLVQAGGSLRLSCAASGRTFTIYAMGSYRQAPGKERELVAAITRSGGGTYYADSVKGRFTISRDNAKNTVYFQMKSLKPEDTAVYYCARDKHWFYGVIGPEDYWGQGTQVTVSS
polyreactivity (PSR sort gate): low polyreactivity
//
Sequence: HVQLVESGGGLVQAGGSLRLSCAASGRTFVVNAMGWYRQAPGTEREFVAAISYRGDSTYYAVSVKGRFTFSRDNSKNTVYLQMNSLKPEDTAVYYCAARVLGPGRRYYYWGQGTQVTVSS
polyreactivity (PSR sort gate): high polyreactivity
//
Sequence: QVQLVESGGGLVQAGGSLRLSCAASGNIFTPYTMGWYRQAPGKERELVASINNAGTTKYADSVKGRFTISRDNAKNTVYLQMNSLKPEDTAVYFCAAQRRHALSSYPKHYYWGQGTQVTVSS
polyreactivity (PSR sort gate): low polyreactivity
//
Sequence: QVQLVESGGGLVQAGGSLRLSCAASGFIFLYYAMGWYRQAPGKERELVADISRGADTKYADSVKGRFTISRDNAKNTVYLQMNSLKPEDTAVYYCATDITTFWVPYPGVELGYWGQGTQVTVSS
polyreactivity (PSR sort gate): low polyreactivity

Prompt line: Determine from records and report polyreactivity (PSR sort gate) for QVQLVETGGGLVQAGGSLRLSCAPSGRIFTYYGMGWYRQPPGKERELVAAITRSGGSTRYADSVKGRFTISRDNAKNTVYLQMNSLKPEDTAVYYCNAGGYWRYDYWGQGTQVTVSS
Response line: high polyreactivity

Prompt line: Determine from records and report polyreactivity (PSR sort gate) for KVQLVESGGGLVQAGGSLRLSCAASGSTISGYAMGWYRQAPGKERELVAAITIGGGTYYADSVKGRFPISRDNAKNTVYLQMNSLKPEDTGVYYCNAYRRKLWYPTGMYWGQGTQVTVSW
Response line: high polyreactivity

Prompt line: Determine from records and report polyreactivity (PSR sort gate) for QVQLVESGGGLVQAGGSLRLSCAASGSIFNRYTMGWYRQAPGKERELVAAISKRGGSTYYADSVKGRFTISRDNAKNTVYLQMNSLKPEDSAVYYCAAAAYHSGNGGGYWGQGTQVSVSS
Response line: high polyreactivity

Prompt line: Determine from records and report polyreactivity (PSR sort gate) for QVQLVESGGGLVQAGGSLRLSCAASGTTFAGNAMGWYRQAPGKEREFVAAITISGGSTYYADSVKGRFTISRDNAKNTVYLQMNRLKPEDTAVYYCAADYAYYVSLPSRFVYAGYDYWGQGTQVTVSS
Response line: low polyreactivity

Prompt line: Determine from records and report polyreactivity (PSR sort gate) for QVQLVESGGGLVQAGGSLRLSCAASGSISIVYTMGWYRQAPGKERELVATISWSGGNTYYADSVKGRFTISRDYAKNTVYLQMNSLKPEDTAVYYCAARWYYYPLLYDYWGQGTQVTVSS
Response line: low polyreactivity

----------
experiment: yeast display, Sf9 membrane polyspecificity reagent, FACS + sequencing; frameworks hold sequencing errors
Reported metric: polyreactivity (PSR sort gate)

See these solved cases before continuing.
Sequence: QVQLVETGGGLVQAGGSLRLSCAASGITFASYDMGWYRQAPGKEWELVAAISSGGDTTYADSVKGRFTLSRDNAKNTVSLQMNSLKPEDTAVYYCNKDIDFAVSAYESSPRTMYYWGQGTQVTVSS
polyreactivity (PSR sort gate): low polyreactivity
//
Sequence: QVQLVESGGGLVQAGGSLRLSCAASGSIFFLYAMGWYRQAPGKERELVAAISRSGVSTYYADSVKGRFTISRDNAKNTVYLQMNSLKPEDTAVYYCNRRVPVTRSRYYYWGQGTQVTVSS
polyreactivity (PSR sort gate): high polyreactivity
//
Sequence: QVQLVESGGGLVQAGGSLRLTCAASGSTFYYYTMGWYRQAPWKERELVAAITSAGSTHYADSVKGRFTISRDNAKNNVYLQMNSLKPEDTAVYYCAAKSHWWWRGYYYWGQGTQVTVSS
polyreactivity (PSR sort gate): high polyreactivity
//
Sequence: QVHLVESGGGLVQAGGSLRLSFAASGFTFGQNAMGWYRQAPGKEREFVATITASGSTYYADSVKGRFTISRDNAKNTVYLQMYSLKPEDTAVYYCATRYAGEYYWDYDYWGQGTQVTVSS
polyreactivity (PSR sort gate): high polyreactivity

Prompt line: Determine from records and report polyreactivity (PSR sort gate) for QVQLVESGGGLVQAGGSLRLSCAASGLIQPYYTMGWYRQAPGKERELVAAIRRTTGSTFYADSVKGRFTISRDNAKNTVYLQMNSLKPEETAVYYCNVRRTPYSHWTGGGMDYWGQGTQVTVSS
Response line: high polyreactivity

Prompt line: Determine from records and report polyreactivity (PSR sort gate) for QVQLVESGGGLVQAGGSLRLSCAASGITLYGNVMGWYRQAPGKERELVAAISGGSTFYADSVKGRFTISRDNAKNTVYLQMNSLKPEDTAVYYCSAEGYGYGSNVPYYYWGQGTQVTVSS
Response line: low polyreactivity

Prompt line: Determine from records and report polyreactivity (PSR sort gate) for QVQLVESGGRLVQAGGSLRLSCAASGRTFQGNAMGWSRQAPGKERELVAAISIRSGRTYYADSVKGRFTISRDNAKNTVYLQMNSLKPEDTAVYYCAAYRGKVRYDYWGQGTQVTVSS
Response line: high polyreactivity

Prompt line: Determine from records and report polyreactivity (PSR sort gate) for QVQLVESGGGLVQAGGSLRLSCAASGFIFPHYAMGGYRQAPGKERELIAAISKSGDSTYYADSVKGRFTISRDNAKNTVYLQMNSLKPEDTAVYYCARRGRSLRWKYDYWGQGTQVTVSS
Response line: low polyreactivity

----------
experiment: yeast display, Sf9 membrane polyspecificity reagent, FACS + sequencing; frameworks hold sequencing errors
Reported metric: polyreactivity (PSR sort gate)

Sequence: QVQLVESGGGLVQAGGSLRLSSAASGSISADYVMGWYRQAPGKERELVAAISVSAGTTYYADSVKGRFTISRDNAKNTVYLQMNSLKPEDTAVYYCAATDSYYWLYYYGYSPGNDYWGQGTQVTVSS
Reported result: low polyreactivity
--
Sequence: QVQLVESGGGLVQAGGSLRLSCAASGSTFVYYVMGWYRQAPGKERELVAAISWSDDSTYYADSVKGRFTISRDNAKNTVYLQMNSLKAEDTAVYYCAATGYPFYTSGDIEYYYWGQGTQVTVSS
Reported result: low polyreactivity
--
Sequence: QVQLQDSGGGLVLAGGSLRLSCSASGNISVYGSMGWYRQAPGKEREFVATIDPGTNTNYADSVKDRFTISRDNAKNTVYLQMNSLKPEDTAVYYCAVEAGSDWPYRYWGQGTQVTVSS
Reported result: low polyreactivity

----------
experiment: yeast display, Sf9 membrane polyspecificity reagent, FACS + sequencing; frameworks hold sequencing errors
Reported metric: polyreactivity (PSR sort gate)

See these solved cases before continuing.
Sequence: QVQLVESGGGLVQAGGSLRLSCAASGFTFKHYAMGWYRQAPGKEREFVAAITGSGGSTYYADSVKGRFTISRDNAKITVYLEMNSLKPEDTAVYYCAASDVSRYRPYRRFDYWGQGTQVTVSS
Reported result: high polyreactivity

Sequence: QVQLVESGGRLVQAGFSLRLSCAASGSTFRWYALGWYRQAPGIESELVAAITSGGRTYYADSVKGRFTISRDNAKNPVYLQMSSLKPEATAGYYCAAQYADRGKRDYWGQGTQVTGSS
Reported result: high polyreactivity

Sequence: QVQLVESGGGLVQAGGTLRLSCAASGYTFYFYAMGWYRQAPGKEREFVAAIRSSGGRTYYADSVKGRFTISRDNAKNTVYLQMNCLKPEDTAVYSCAAAGYYYSVDGAGPRYDYWGQGTQVTGSS
Reported result: low polyreactivity

Sequence: QVQLVESGGGLVQAGGSLRLSCAASGRTFFPNAMGWYRQAPGKERELVAAISSGGGGTYYADSVKGRFTISRDNAKNTVYLQMISLKPEDTAVYYCAARNSKVEEEGNYWGQGTQVTVSS
Reported result: low polyreactivity

Prompt line: Determine from records and report polyreactivity (PSR sort gate) for QVQLVESGGGLVQAGGSLRLSCAASGFIYGYYAKGWYRQAPGKARELVAAISYSGGSTYYADSVKGRFTISRDNAKNTVYLQKNSLKPEDSAVYYCAAVYLGYIYSRYDYWGQGTQVTVSS
Response line: low polyreactivity
